MEASURED_ON: UniProtKB P30542
Sequence (P30542 whole entry): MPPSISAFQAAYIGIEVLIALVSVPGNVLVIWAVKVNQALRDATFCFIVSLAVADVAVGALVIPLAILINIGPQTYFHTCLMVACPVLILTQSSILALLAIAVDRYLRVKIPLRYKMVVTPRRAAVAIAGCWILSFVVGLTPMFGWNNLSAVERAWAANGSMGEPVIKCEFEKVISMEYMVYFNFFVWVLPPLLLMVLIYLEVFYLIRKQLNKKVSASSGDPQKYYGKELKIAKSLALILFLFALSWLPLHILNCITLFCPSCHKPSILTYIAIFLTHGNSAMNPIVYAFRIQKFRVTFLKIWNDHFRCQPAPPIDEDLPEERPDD
PROCEDURE_DETAILS: A1 adenosine receptor radioligand binding assay ([3H] DPCPX)
CONDITION_SET: 200 nM compound; radioligand [3H] DPCPX 1 nM
Note to self: values exactly at 70% are Condition met. So inhibition at 0.2 µM at or above 70% is Condition met, below is Condition not met.

Given the entry N#Cc1cccc(CNC(=O)c2nc(-c3cc(Cl)c4ncccc4c3)c(-c3ccc(F)cc3)nc2N)n1 , answer whether its inhibition at 0.2 µM meets or surpasses 70%.
Condition met

Determine whether this molecule has inhibition at 0.2 µM no lower than 70%: C[C@H](NC(=O)c1nc(-c2ccc3ncccc3c2)c(-c2cccc(C#N)c2)nc1N)c1cccc(C#N)n1
Condition met

In plain terms: is recorded inhibition at 0.2 µM at least 70% for C[C@@H](NC(=O)c1nc(-c2cc(Cl)c3ncccc3c2)c(-c2ccccc2)nc1N)c1cccc(C#N)n1 ?
Condition met

Quick check: does C[C@@H](NC(=O)c1nc(-c2cc(Cl)c3ncccc3c2)c(-c2ccc(F)cc2)nc1N)c1ccccn1 have inhibition at 0.2 µM greater than or equal to 70%?
Condition not met

Please tell me: is the molecule CC(C)(NC(=O)c1nc(-c2ccc3ncccc3c2)c(-c2ccccc2)nc1N)c1ccccn1 at or over 70% in terms of inhibition at 0.2 µM?
Condition not met

Does the molecule CC(NC(=O)c1nc(-c2cc(Cl)c3ncccc3c2)c(-c2ccc(F)cc2)nc1N)c1cccc(C#N)n1 (stereo not drawn) have recorded inhibition at 0.2 µM that is 70% or more?
Condition met

Is it the case that C[C@@H](NC(=O)c1nc(-c2ccc3ncccc3c2)c(-c2ccccc2)nc1N)c1cccc(C#N)n1 has inhibition at 0.2 µM reaching or exceeding 70%?
Condition met

Decide: inhibition at 0.2 µM of C[C@@H](NC(=O)c1nc(-c2ccc3ncccc3c2)c(-c2cccc(C#N)c2)nc1N)c1cccc(C#N)n1 >= 70%?
Condition not met

Is inhibition at 0.2 µM at least 70%? Consider N#Cc1cccc(-c2nc(N)cnc2-c2cc(Cl)c3ncccc3c2)c1F
Condition met

Can N#Cc1cc(-c2nc(N)cnc2-c2cc(Cl)c3ncccc3c2)ccc1F be said to have inhibition at 0.2 µM at or above 70%?
Condition not met

Is inhibition at 0.2 µM for C[C@@H](NC(=O)c1nc(-c2cc(Cl)c3ncccc3c2)c(-c2ccccc2)nc1N)c1ccccn1 at or above 70%?
Condition not met

Entry C[C@@H](NC(=O)c1nc(-c2ccc3ncccc3c2)c(-c2ccccc2)nc1N)c1ccccn1 : is its inhibition at 0.2 µM no less than 70%?
Condition not met

Record CC(NC(=O)c1nc(-c2ccc3ncccc3c2)c(-c2ccccc2)nc1N)c1cccc(C#N)n1 (stereo not drawn) ; criterion: inhibition at 0.2 µM no lower than 70%. Met?
Condition met

Please indicate if the recorded inhibition at 0.2 µM for CC(Oc1nc(-c2cc(Cl)c3ncccc3c2)c(-c2ccc(F)cc2)nc1N)c1ccccn1 (stereo not drawn) meets or exceeds 70%.
Condition not met
